What GI50 was measured for each of the following?
Tested on: NCI-H226 lung
assay: NCI tumour cell line growth inhibition, 48 h

Enquiry: Name the recorded GI50 of the molecule listed here: COc1cc(NCCCCCCCNC(C)C)c2nccc(C)c2c1
Return: 14.6 µM

Enquiry: Name the recorded GI50 of the molecule listed here: COc1ccc(/C(=N\NC(=S)NN)C(c2ccc(OC)cc2)C2C(=O)Oc3ccccc32)cc1 (stereo not given)
Return: > 100 µM

Enquiry: Name the recorded GI50 of the molecule listed here: CC(C)(C)C(=O)[CH-]C(=O)C(C)(C)C.CC(C)(C)C(=O)[CH-]C(=O)C(C)(C)C.CN(C)c1ccc([O-])cc1.CN(C)c1ccc([O-])cc1.[Ti+4]
Return: > 100 µM

Enquiry: Name the recorded GI50 of the molecule listed here: O=C(Nc1ccc(Cl)c(Cl)c1)NS(=O)(=O)c1cnccc1Oc1ccc(F)cc1
Return: 9.77 µM

Enquiry: Name the recorded GI50 of the molecule listed here: Cc1cc(I)cc(CN(C)CCCN2CCCC2)c1O
Return: 30.7 µM

Enquiry: Name the recorded GI50 of the molecule listed here: O=C1CCCCN1CCCCC#Cc1cccc(C#Cc2cccnc2)c1
Return: 12.9 µM

Enquiry: Name the recorded GI50 of the molecule listed here: COc1ccc(C(=O)c2ccc([As]=O)cc2)cc1 (stereo not given)
Return: 0.169 µM

Enquiry: Name the recorded GI50 of the molecule listed here: O=c1cc(/C=C/c2ccccc2)[nH]c2cc3c(cc12)OCO3
Return: 2.91 µM

Enquiry: Name the recorded GI50 of the molecule listed here: Cc1ccc(-c2nc3nc(-c4ccc(F)cc4)nc(N4CCCNCC4)c3o2)cc1
Return: 1.96 µM

Enquiry: Name the recorded GI50 of the molecule listed here: CC(C)(C)OC(=O)NCCCCCCCn1c2c(c3ccccc3c1=O)C(=O)c1ccccc1-2
Return: 31.3 µM
